tested on: Aβ-40; assay: MSD Human (6E10) Ab 3-PLEX elisa, conditioned media of 2B7 cells: Aβ-40; assay type: cell-based; details: Homo sapiens, Aβ-40 (superscript b); read-out: 50% reduction value
property.measured: IC50

Sample records with IC50:
compound	target.of.assay	IC50
C[C@@H]1CC(COC(=O)C(C)(C)C)OC2[C@H]1[C@@]1(C)CC[C@@]34C[C@@]35CC[C@H](O[C@H]3CN(C6COC6)CCO3)C(C)(C)[C@@H]5CCC4[C@]1(C)[C@H]2O (some centres unmarked)	Aβ-40	> 10 µM
CCO[C@@H](C1C[C@@H](C)[C@H]2C(O1)[C@H](O)[C@@]1(C)C3CC[C@H]4C(C)(C)C(O[C@H]5CN([C@@H](C)C(=O)O)CCO5)CC[C@@]45C[C@@]35CC[C@]21C)C(C)(C)O (some centres unmarked)	Aβ-40	> 10 µM
CCOC(C)(C)[C@H](O)C1C[C@@H](C)[C@H]2C(O1)[C@H](O)[C@@]1(C)C3CC[C@H]4C(C)(C)C(O)CC[C@@]45C[C@@]35CC[C@]21C (some centres unmarked)	Aβ-40	> 10 µM
CO[C@@H](C1C[C@@H](C)[C@H]2C(O1)[C@H](O)[C@@]1(C)C3CC[C@H]4C(C)(C)C(OC(=O)NC5CNC5)CC[C@@]45C[C@@]35CC[C@]21C)C(C)(C)O (some centres unmarked)	Aβ-40	1 to 10 µM

Continue with the compound presented below.
Quick one: give measured IC50 for C[C@@H]1CC(COC(N)=O)OC2[C@H]1[C@@]1(C)CC[C@@]34C[C@@]35CC[C@H](O)C(C)(C)[C@@H]5CCC4[C@]1(C)[C@H]2O (some centres unmarked)
> 10 µM

###

system: amyloid-beta (1-42) peptide; test: ELISA assay of amyloid-beta (1-42) in conditioned media of 2B7 cells; assay type: cell-based; conditions: 5 h, Aβ-42, 2B7 cells, 5 hours; read-out: IC50 range
Reported IC50 values are given for each entry in this list.

compound	IC50
CC(=O)O[C@@H]([C@H]1C[C@@H](C)[C@H]2[C@H](O1)[C@H](O)[C@@]1(C)[C@@H]3CC[C@H]4C(C)(C)C(OC(=O)[C@@H]5CCCN5)CC[C@@]45C[C@@]35CC[C@]21C)C(C)(C)O (some centres unmarked)	≤ 1 µM
CC(=O)O[C@@H]([C@H]1C[C@@H](C)C2=C(O1)[C@H](O)[C@@]1(C)[C@@H]3CC[C@H]4C(C)(C)[C@@H](O[C@H]5CN(O)CCO5)CC[C@@]45C[C@@]35CC[C@]21C)C(C)(C)O	≤ 1 µM
C[C@@H]1C[C@H]([C@H](O)C(C)(C)O)OC2=C1[C@@]1(C)CC[C@@]34C[C@@]35CC[C@H](O[C@@H]3OC[C@@H](O)[C@H](O)[C@H]3O)C(C)(C)[C@@H]5CC[C@H]4[C@]1(C)[C@H]2O	1 to 10 µM
CC(=O)O[C@@H]([C@H]1C[C@@H](C)C2C(O1)[C@H](O)[C@@]1(C)[C@@H]3CC[C@H]4C(C)(C)[C@@H](OC(=O)c5ccccn5)CC[C@@]45C[C@@]35CC[C@]21C)C(C)(C)O (some centres unmarked)	≤ 1 µM

Continue with the compound presented below.
Quick one: give measured IC50 for CC(=O)O[C@@H]([C@H]1C[C@@H](C)C2C(O1)[C@H](O)[C@@]1(C)[C@@H]3CC[C@H]4C(C)(C)[C@@H](O[C@H]5CNCCO5)CC[C@@]45C[C@@]35CC[C@]21C)C(C)(C)O (some centres unmarked)
≤ 1 µM
